Flow Cytometry (MFI) values, listed per item
Target: T1, CDCP1 extracellular domain displayed on the surface of HEK293 (T-Rex-293) cells (human, UniProt Q9H5V8 30-667)
T1 construct: extracellular domain; also called CDCP1 Cell; not shown: fluorescent protein expression reporter and generic single-pass transmembrane domain
T1 sequence (looked up): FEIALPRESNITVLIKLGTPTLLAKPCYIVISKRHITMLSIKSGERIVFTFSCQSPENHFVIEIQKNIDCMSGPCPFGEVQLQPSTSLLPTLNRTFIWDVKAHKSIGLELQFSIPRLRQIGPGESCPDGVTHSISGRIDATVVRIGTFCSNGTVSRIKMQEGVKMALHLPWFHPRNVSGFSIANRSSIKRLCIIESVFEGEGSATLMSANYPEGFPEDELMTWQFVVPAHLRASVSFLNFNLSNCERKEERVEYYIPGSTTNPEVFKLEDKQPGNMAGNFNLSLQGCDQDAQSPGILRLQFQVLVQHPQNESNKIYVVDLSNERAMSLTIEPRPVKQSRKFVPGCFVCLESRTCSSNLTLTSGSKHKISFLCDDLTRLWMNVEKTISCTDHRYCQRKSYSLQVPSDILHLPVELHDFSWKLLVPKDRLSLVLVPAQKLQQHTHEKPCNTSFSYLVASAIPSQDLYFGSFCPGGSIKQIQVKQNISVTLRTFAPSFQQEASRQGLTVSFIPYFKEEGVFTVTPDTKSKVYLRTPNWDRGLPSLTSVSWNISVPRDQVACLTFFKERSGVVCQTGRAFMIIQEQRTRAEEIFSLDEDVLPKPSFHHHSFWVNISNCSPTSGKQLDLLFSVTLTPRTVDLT
Experiment: flow cytometry, Fab on CDCP1 Cell
ASSAY READOUT: Flow Cytometry (MFI)

[[record]]
binder = "CDCP1-005 Fab (Fab, V domains shown, Tested as Fab) VH: EVQLVESGGGLVQPGGSLRLSCAASGFNISYYYIHWVRQAPGKGLEWVASIYPYYGSTYYADSVKGRFTISADTSKNTAYLQMNSLRAEDTAVYYCARAYYGFDYWGQGTLVTVSS VL: DIQMTQSPSSLSASVGDRVTITCRASQSVSSAVAWYQQKPGKAPKLLIYSASSLYSGVPSRFSGSRSGTDFTLTISSLQPEDFATYYCQQSYWSFPITFGQGTKVEIK"
assay_readout = "Flow Cytometry (MFI)"
measure_unit = "MFI"
value = 870

[[record]]
binder = "CDCP1-008 Fab (Fab, V domains shown, Tested as Fab) VH: EVQLVESGGGLVQPGGSLRLSCAASGFNISSYYMHWVRQAPGKGLEWVASIYPYSGYTYYADSVKGRFTISADTSKNTAYLQMNSLRAEDTAVYYCARAYYAMDYWGQGTLVTVSS VL: DIQMTQSPSSLSASVGDRVTITCRASQSVSSAVAWYQQKPGKAPKLLIYSASSLYSGVPSRFSGSRSGTDFTLTISSLQPEDFATYYCQQSYYVYPITFGQGTKVEIK"
assay_readout = "Flow Cytometry (MFI)"
measure_unit = "MFI"
value = 673

[[record]]
binder = "CDCP1-007 Fab (Fab, V domains shown, Tested as Fab) VH: EVQLVESGGGLVQPGGSLRLSCAASGFNIYSYYIHWVRQAPGKGLEWVASIYPYYGYTSYADSVKGRFTISADTSKNTAYLQMNSLRAEDTAVYYCARAYYGMDYWGQGTLVTVSS VL: DIQMTQSPSSLSASVGDRVTITCRASQSVSSAVAWYQQKPGKAPKLLIYSASSLYSGVPSRFSGSRSGTDFTLTISSLQPEDFATYYCQQSYFYWPITFGQGTKVEIK"
assay_readout = "Flow Cytometry (MFI)"
measure_unit = "MFI"
value = 2.33

[[record]]
binder = "CDCP1-004 Fab (Fab, V domains shown, Tested as Fab) VH: EVQLVESGGGLVQPGGSLRLSCAASGFNISYYYMHWVRQAPGKGLEWVASIYSSYGYTSYADSVKGRFTISADTSKNTAYLQMNSLRAEDTAVYYCARVYYGFDYWGQGTLVTVSS VL: DIQMTQSPSSLSASVGDRVTITCRASQSVSSAVAWYQQKPGKAPKLLIYSASSLYSGVPSRFSGSRSGTDFTLTISSLQPEDFATYYCQQSYYVYPITFGQGTKVEIK"
assay_readout = "Flow Cytometry (MFI)"
measure_unit = "MFI"
value = 770

[[record]]
binder = "CDCP1-003 Fab (Fab, V domains shown, Tested as Fab) VH: EVQLVESGGGLVQPGGSLRLSCAASGFNISYYSMHWVRQAPGKGLEWVASISPYSGYTSYADSVKGRFTISADTSKNTAYLQMNSLRAEDTAVYYCARGYYALDYWGQGTLVTVSS VL: DIQMTQSPSSLSASVGDRVTITCRASQSVSSAVAWYQQKPGKAPKLLIYSASSLYSGVPSRFSGSRSGTDFTLTISSLQPEDFATYYCQQYYYFYPFTFGQGTKVEIK"
assay_readout = "Flow Cytometry (MFI)"
measure_unit = "MFI"
value = 180

[[record]]
binder = "CDCP1-006 Fab (Fab, V domains shown, Tested as Fab) VH: EVQLVESGGGLVQPGGSLRLSCAASGFNLYYSYMHWVRQAPGKGLEWVAYISPYSGSTYYADSVKGRFTISADTSKNTAYLQMNSLRAEDTAVYYCARYSYSALDYWGQGTLVTVSS VL: DIQMTQSPSSLSASVGDRVTITCRASQSVSSAVAWYQQKPGKAPKLLIYSASSLYSGVPSRFSGSRSGTDFTLTISSLQPEDFATYYCQQSSWHYHLFTFGQGTKVEIK"
assay_readout = "Flow Cytometry (MFI)"
measure_unit = "MFI"
value = 52.3

[[record]]
binder = "CDCP1-002 Fab (Fab, V domains shown, Tested as Fab from a synthetic Fab-phage library; Used 89Zr-labeled for PET and 125I-labeled for Bmax; also called CDCP1-4A06; CDCP1 Fab) VH: EVQLVESGGGLVQPGGSLRLSCAASGFNLSYYYIHWVRQAPGKGLEWVASIYSSSSYTSYADSVKGRFTISADTSKNTAYLQMNSLRAEDTAVYYCARAYYGFDYWGQGTLVTVSS VL: DIQMTQSPSSLSASVGDRVTITCRASQSVSSAVAWYQQKPGKAPKLLIYSASSLYSGVPSRFSGSRSGTDFTLTISSLQPEDFATYYCQQSYYYYPITFGQGTKVEIK"
assay_readout = "Flow Cytometry (MFI)"
measure_unit = "MFI"
value = 1160

